experiment: chemical genetic growth profiling, strain panel (AID 1159580);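 also: tested at 20 µM; growth read once vehicle control cultures reached saturation at 30 °C; 1 = growth at the plate median or of vehicle wells; lower values mean less growth of the strain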; conditions: S. cerevisiae deletion strains, growth OD, locus YPR167C, strain met16, active compounds read low
Among all 5,500 compounds or so, about 2,000 (36%) were called active. Inconclusive results (about 18%) are left out. The list shows a part of the results.
Listing: normalized growth of selected molecules
Just the number, please.

>  <molecule>
CC(=O)Oc1ccc(/C=C/c2cc(OC(C)=O)cc(OC(C)=O)c2)cc1

>  <normalized growth>
1.02

$$$$
>  <molecule>
CN(C)[C@@H]1C(=O)C(C(N)=O)=C(O)[C@@]2(O)C(=O)C3=C(O)c4c(O)ccc(Cl)c4[C@@H](O)[C@H]3C[C@@H]12

>  <normalized growth>
0.985

$$$$
>  <molecule>
O=C(OCc1ccccc1)c1ccccc1

>  <normalized growth>
0.96

$$$$
>  <molecule>
Oc1c(Cl)cc(Cl)cc1Sc1cc(Cl)cc(Cl)c1O

>  <normalized growth>
0.986

$$$$
>  <molecule>
CC(=O)c1ccc(O)c(CC=C(C)C)c1

>  <normalized growth>
0.969

$$$$
>  <molecule>
NCC(N)C(=O)c1ccccc1 (centres undefined)

>  <normalized growth>
1.01

$$$$
>  <molecule>
CCN(CC)CCOC(=O)C(c1ccccc1)C1CCCCC1 (centres undefined)

>  <normalized growth>
0.96

$$$$
>  <molecule>
CN(C)[C@@H]1C(=O)C(C(N)=O)=C(O)[C@@]2(O)C(=O)C3=C(O)c4c(O)cccc4[C@@](C)(O)[C@H]3[C@H](O)[C@@H]12

>  <normalized growth>
1

$$$$
>  <molecule>
CC(CCc1ccccc1)NCC(O)c1ccc(O)c(C(N)=O)c1 (centres undefined)

>  <normalized growth>
1.01

$$$$
>  <molecule>
CC(C)(C)NCC(O)c1ccc(O)c(CO)c1 (centres undefined)

>  <normalized growth>
1.02

$$$$

Request: Any idea what normalized growth was measured for CC(=O)Oc1ccc(O)cc1 ?
Response: 1.03

Request: Lookup NC(Cn1ccc(=O)c(O)c1)C(=O)O (centres undefined)
Response: 0.99

Request: Lookup CC(=O)Oc1cccc(O)c1
Response: 1.01
